Would you mind telling me the reported pest or weed control at 33 µg/cm2 of each entry?
test system: Mustard (Brassica arvensis); assay: Post-emergent herbicidal test; format: in vivo; conditions: post-emergence, 504 h, 33 mcg/cm^2, 3 weeks, scale 0 (no phytotoxicity) to 100 (complete kill), read-out: Herbicidal Effectiveness (L)
Answers are plain numbers, in %.

Previously resolved entries follow.
# Smiles record, System name, Assay metric, Unit abbrev, Data value
records = [
    ("Cc1ccc(Cl)cc1N=c1ssnc1Cl", "Mustard (Brassica arvensis)", "pest or weed control at 33 µg/cm2", "%", 100),
    ("Cc1cc(Cl)ccc1N=c1ssnc1Cl", "Mustard (Brassica arvensis)", "pest or weed control at 33 µg/cm2", "%", 70),
    ("Clc1ccc(N=c2ssnc2Cl)c(Cl)c1", "Mustard (Brassica arvensis)", "pest or weed control at 33 µg/cm2", "%", 100),
]

Quick request: pest or weed control at 33 µg/cm2 for each listed item, please.
1. Fc1ccc(N=c2ssnc2Cl)cc1
2. Clc1cccc(N=c2ssnc2Cl)c1
3. Fc1ccccc1N=c1ssnc1Cl
4. Clc1nssc1=Nc1ccc2ccccc2c1
5. Clc1nssc1=Nc1ccccc1
6. Cc1ccc(N=c2ssnc2Cl)c(C)c1
7. O=[N+]([O-])c1cccc(N=c2ssnc2Cl)c1
8. Cc1cccc(C)c1N=c1ssnc1Cl

Result:
1. 100
2. 98
3. 85
4. 100
5. 80
6. 50
7. 35
8. 75

Record pest or weed control at 33 µg/cm2 per entry; entries follow.
1. Cc1ccc(N=c2ssnc2Cl)cc1
2. Clc1cc(Cl)cc(N=c2ssnc2Cl)c1
3. Clc1nssc1=Nc1cccc(Br)c1
4. Clc1ccc(N=c2ssnc2Cl)cc1Cl
5. Cc1ccccc1N=c1ssnc1Cl
6. Clc1ccc(N=c2ssnc2Cl)cc1
7. Cc1c(Cl)cccc1N=c1ssnc1Cl

Result:
1: 100; 2: 100; 3: 100; 4: 100; 5: 60; 6: 95; 7: 45

Request: # returns recorded pest or weed control at 33 µg/cm2 (system: Mustard (Brassica arvensis)) for "Clc1ccccc1N=c1ssnc1Cl"
Result: 100
